Values compiled from patent US5216005A.

test: viability of peripheral blood lymphocytes with or without PHA, trypan blue exclusion
Assay type: cell-based, human
test.conditions: human, peripheral blood lymphocytes, first individual; (-) PHA; 2.2 mM
Listed below: viability at 2200 µM values for each entry.

# compound, unit.abbreviation, viability at 2200 µM
records = [
    ("COC(=O)CCC(=O)CC(C)=O [Succinylacetone Methyl Ester, methyl 4-6-dioxoheptanoate]", "%", 94),
    ("COC(=O)CCC(C(C)=O)C(C)=O [Methyl 4-Acetyl-5-Oxohexanoate, methyl 4-acetyl-5-oxohexanoate]", "%", 100),
]

====

test: viability of peripheral blood lymphocytes with or without PHA, trypan blue exclusion
Assay type: cell-based, human
test.conditions: human, peripheral blood lymphocytes, second individual; (+) PHA; 6.7 mM
Listed below: viability at 6700 µM values for each entry.

# compound, viability at 6700 µM, %
measured = [
    ("COC(=O)CCC(C(C)=O)C(C)=O [Methyl 4-Acetyl-5-Oxohexanoate, methyl 4-acetyl-5-oxohexanoate]", 100),
    ("COC(=O)CCC(=O)CC(C)=O [Succinylacetone Methyl Ester, methyl 4-6-dioxoheptanoate]", 6),
]

====

Listed below: viability at 20000 µM values for each entry.
test: viability of peripheral blood lymphocytes with or without PHA, trypan blue exclusion
Format: cell-based, human
test.conditions: human, peripheral blood lymphocytes, second individual; (+) PHA; 20 mM

# molecule, viability at 20000 µM (%)
records = [
    ("COC(=O)CCC(=O)CC(C)=O [Succinylacetone Methyl Ester, methyl 4-6-dioxoheptanoate]", 0),
    ("COC(=O)CCC(C(C)=O)C(C)=O [Methyl 4-Acetyl-5-Oxohexanoate, methyl 4-acetyl-5-oxohexanoate]", 100),
]

====

test: viability of peripheral blood lymphocytes with or without PHA, trypan blue exclusion
Assay type: cell-based, human
test.conditions: human, peripheral blood lymphocytes, second individual; (+) PHA; 81 μM
Listed below: viability at 81 µM values for each entry.
assay.metric: viability at 81 µM

# compound, obs.value
data = [
    ("COC(=O)CCC(C(C)=O)C(C)=O [Methyl 4-Acetyl-5-Oxohexanoate, methyl 4-acetyl-5-oxohexanoate]", "100%"),
    ("COC(=O)CCC(=O)CC(C)=O [Succinylacetone Methyl Ester, methyl 4-6-dioxoheptanoate]", "98%"),
]

====

test: viability of peripheral blood lymphocytes with or without PHA, trypan blue exclusion
Assay type: cell-based, human
test.conditions: human, peripheral blood lymphocytes, first individual; (-) PHA; 27 μM
Protocol: Viability was determined using the trypan blue exclusion method well known in the art. […] The assays were conducted in duplicate wherein peripheral blood lymphocytes were isolated from two separate individuals, and then treated with or without phytohemagglutinin in the presence of various concentrations of the appropriate succinylacetone derivative.

# molecule, viability at 27 µM (%)
data = [
    ("COC(=O)CCC(=O)CC(C)=O [Succinylacetone Methyl Ester, methyl 4-6-dioxoheptanoate]", 100),
    ("COC(=O)CCC(C(C)=O)C(C)=O [Methyl 4-Acetyl-5-Oxohexanoate, methyl 4-acetyl-5-oxohexanoate]", 100),
]

====

Listed below: viability at 733 µM values for each entry.
test: viability of peripheral blood lymphocytes with or without PHA, trypan blue exclusion
Format: cell-based, human
test.conditions: human, peripheral blood lymphocytes, first individual; (+) PHA; 733 μM
Protocol: Viability was determined using the trypan blue exclusion method well known in the art. […] The assays were conducted in duplicate wherein peripheral blood lymphocytes were isolated from two separate individuals, and then treated with or without phytohemagglutinin in the presence of various concentrations of the appropriate succinylacetone derivative.

# compound, viability at 733 µM
rows = [
    ("COC(=O)CCC(=O)CC(C)=O [Succinylacetone Methyl Ester, methyl 4-6-dioxoheptanoate]", "90%"),
    ("COC(=O)CCC(C(C)=O)C(C)=O [Methyl 4-Acetyl-5-Oxohexanoate, methyl 4-acetyl-5-oxohexanoate]", "100%"),
]

====

test: viability of peripheral blood lymphocytes with or without PHA, trypan blue exclusion
Format: cell-based, human
test.conditions: human, peripheral blood lymphocytes, second individual; (+) PHA; 27 μM

# molecule, viability at 27 µM (%)
rows = [
    ("COC(=O)CCC(=O)CC(C)=O [Succinylacetone Methyl Ester, methyl 4-6-dioxoheptanoate]", 94),
    ("COC(=O)CCC(C(C)=O)C(C)=O [Methyl 4-Acetyl-5-Oxohexanoate, methyl 4-acetyl-5-oxohexanoate]", 100),
]

====

test: viability of peripheral blood lymphocytes with or without PHA, trypan blue exclusion
Assay type: cell-based, human
test.conditions: human, peripheral blood lymphocytes, second individual; (+) PHA; 2.2 mM
assay.metric: viability at 2200 µM

# compound, assay.metric, obs.value
measured = [
    ("COC(=O)CCC(=O)CC(C)=O [Succinylacetone Methyl Ester, methyl 4-6-dioxoheptanoate]", "viability at 2200 µM", "93%"),
    ("COC(=O)CCC(C(C)=O)C(C)=O [Methyl 4-Acetyl-5-Oxohexanoate, methyl 4-acetyl-5-oxohexanoate]", "viability at 2200 µM", "100%"),
]

====

test: viability of peripheral blood lymphocytes with or without PHA, trypan blue exclusion
Assay type: cell-based, human
test.conditions: human, peripheral blood lymphocytes, first individual; (+) PHA; 3 μM
Listed below: viability at 3 µM values for each entry.

# molecule, unit.abbreviation, viability at 3 µM
data = [
    ("COC(=O)CCC(=O)CC(C)=O [Succinylacetone Methyl Ester, methyl 4-6-dioxoheptanoate]", "%", 100),
    ("COC(=O)CCC(C(C)=O)C(C)=O [Methyl 4-Acetyl-5-Oxohexanoate, methyl 4-acetyl-5-oxohexanoate]", "%", 100),
]

====

Listed below: viability at 3 µM values for each entry.
test: viability of peripheral blood lymphocytes with or without PHA, trypan blue exclusion
Assay type: cell-based, human
test.conditions: human, peripheral blood lymphocytes, second individual; (+) PHA; 3 μM
assay.metric: viability at 3 µM (%)

# molecule, unit.abbreviation, obs.value
records = [
    ("COC(=O)CCC(=O)CC(C)=O [Succinylacetone Methyl Ester, methyl 4-6-dioxoheptanoate]", "%", 100),
    ("COC(=O)CCC(C(C)=O)C(C)=O [Methyl 4-Acetyl-5-Oxohexanoate, methyl 4-acetyl-5-oxohexanoate]", "%", 100),
]

====

Test system: IFN-γ (human lymphoid cells)
test: IFN-γ production in primary mixed lymphocyte reaction (WISH cells/EMC virus assay)
Format: cell-based
test.conditions: Homo sapiens, Lymphocyte; primary MLR; read-out: concentration causing 50% reduction in IFN-γ production
pIC50: −log10 of the molar value.

# molecule, pIC50
measured = [
    ("COC(=O)CCC(C(C)=O)C(C)=O [Methyl 4-Acetyl-5-Oxohexanoate, methyl 4-acetyl-5-oxohexanoate]", "~2.66"),
]

====

Test system: human lymphocytes
test: tritiated thymidine uptake in primary mixed lymphocyte reaction
Type: cell-based
test.conditions: Homo sapiens, Lymphocyte, read-out: concentration for 50% reduction in thymidine uptake

# compound, IC50
rows = [
    ("COC(=O)CCC(=O)CC(C)=O [Succinylacetone Methyl Ester, methyl 4-6-dioxoheptanoate]", "~733 µM"),
]

====

test: viability of peripheral blood lymphocytes with or without PHA, trypan blue exclusion
Assay type: cell-based, human
test.conditions: human, peripheral blood lymphocytes, first individual; (+) PHA; 27 μM
assay.metric: viability at 27 µM (%)

# compound, assay.metric, obs.value
measured = [
    ("COC(=O)CCC(C(C)=O)C(C)=O [Methyl 4-Acetyl-5-Oxohexanoate, methyl 4-acetyl-5-oxohexanoate]", "viability at 27 µM", 100),
    ("COC(=O)CCC(=O)CC(C)=O [Succinylacetone Methyl Ester, methyl 4-6-dioxoheptanoate]", "viability at 27 µM", 97),
]
